Molecular target: indoleamine 2,3-dioxygenase (IDO1) (Homo sapiens)
Sequence (P14902 whole entry): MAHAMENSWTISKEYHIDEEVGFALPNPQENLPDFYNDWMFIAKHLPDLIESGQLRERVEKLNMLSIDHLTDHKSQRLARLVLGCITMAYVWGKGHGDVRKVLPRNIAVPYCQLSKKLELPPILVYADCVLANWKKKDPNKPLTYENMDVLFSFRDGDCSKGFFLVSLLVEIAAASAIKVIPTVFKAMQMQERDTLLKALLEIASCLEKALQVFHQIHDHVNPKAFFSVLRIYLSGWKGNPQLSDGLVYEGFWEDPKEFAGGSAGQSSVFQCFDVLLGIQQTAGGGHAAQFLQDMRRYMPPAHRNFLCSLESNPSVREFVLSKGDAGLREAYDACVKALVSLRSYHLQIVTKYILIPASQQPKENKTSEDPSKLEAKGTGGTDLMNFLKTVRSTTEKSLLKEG
Experiment: HeLa IDOi assay (kynurenine by mass spectrometry)
Assay type: cell-based
Parameters: human epithelial HeLa cells (CCL-2; host or cells: HeLa cells stimulated with human IFN-γ
Conditions: IFN-γ stimulated HeLa cells, 2 days, kynurenine detected by mass spectrometry; read-out: HeLa pIC50 (converted)
// values below are reported IC50
Give the quantity in nM, number only.

[[record]]
structure = "CC(C)(C)OC(=O)N1CCC(CC(=O)Nc2cc(-c3ccccc3-c3nn[nH]n3)ccc2SC(C)(C)C)CC1"
test_readout = "IC50"
scale_unit = "nM"
reported_measurement = 5010

[[record]]
structure = "CC(C)(C)Sc1ccc(-c2ccccc2-c2nn[nH]n2)cc1NC(=O)Cc1ccc(F)cc1"
test_readout = "IC50"
scale_unit = "nM"
reported_measurement = 398

[[record]]
structure = "CC(C)(C)Sc1ncc(-c2ccccc2-c2nnn[nH]2)cc1NC(=O)Cc1ccc(C(F)(F)F)cc1"
test_readout = "IC50"
scale_unit = "nM"
reported_measurement = 39.8

[[record]]
structure = "Cc1cc(CC(=O)Nc2cc(-c3ccccc3-c3nn[nH]n3)ccc2SC(C)(C)C)on1"
test_readout = "IC50"
scale_unit = "nM"
reported_measurement = 6310

[[record]]
structure = "Cc1ccc(CC(=O)Nc2cc(-c3ccccc3-c3nn[nH]n3)ccc2Sc2ccccc2)cc1"
test_readout = "IC50"
scale_unit = "nM"
reported_measurement = 251


Return the recorded IC50 value; entry: `Cc1ccc(CC(=O)Nc2cc(-c3ccccc3-c3nnn[nH]3)cnc2SC(C)(C)C)c(C)c1`
10

Return the recorded IC50 value; entry: `Cc1ccc(NC(=O)Nc2cc(-c3ccccc3-c3nn[nH]n3)ccc2SC(C)(C)C)cc1`
398

====

// values below are reported log10(IC50)
Biological target: indoleamine 2,3-dioxygenase (IDO1) (Homo sapiens)
Experiment: PBMC IDOi assay (kynurenine by mass spectrometry)
Assay type: cell-based
Settings: IFN-γ and LPS stimulated human PBMC, 2 days, kynurenine detected by mass spectrometry; read-out: PBMC pIC50 (converted)
Kindly note that the scale is log10 and the underlying IC50 is in nM.

[[record]]
compound = "CC(C)(C)Sc1ccc(-c2ccccc2-c2nn[nH]n2)cc1NC(=O)Cc1ccc(Br)cc1"
assayed_target = "indoleamine 2,3-dioxygenase (IDO1) (Homo sapiens)"
test_readout = "log10(IC50)"
reported_measurement = 1.30

[[record]]
compound = "Cc1ccc(CC(=O)Nc2cc(-c3ccccc3-c3nn[nH]n3)ccc2SC(C)(C)C)cc1"
assayed_target = "indoleamine 2,3-dioxygenase (IDO1) (Homo sapiens)"
test_readout = "log10(IC50)"
reported_measurement = 1.10

[[record]]
compound = "Cc1ccc(NC(=O)Nc2cc(-c3ccccc3C(=O)O)ccc2SC(C)(C)C)cc1"
assayed_target = "indoleamine 2,3-dioxygenase (IDO1) (Homo sapiens)"
test_readout = "log10(IC50)"
reported_measurement = 3.20

[[record]]
compound = "Cc1ccc(CC(=O)Nc2cc(-c3ccccc3-c3nnnn3COC(=O)C(C)(C)C)ccc2SC(C)(C)C)cc1"
assayed_target = "indoleamine 2,3-dioxygenase (IDO1) (Homo sapiens)"
test_readout = "log10(IC50)"
reported_measurement = 1.30


Return the recorded log10(IC50) value; entry: `Cc1ccc(CC(=O)Nc2cc(-c3ccccc3C#N)ccc2SC(C)(C)C)cc1`
3.70

Return the recorded log10(IC50) value; entry: `CC(C)(C)Sc1ncc(-c2ccccc2-c2nnn[nH]2)cc1NC(=O)Cc1ccc(C(F)(F)F)cc1`
1.40
